Task for the reader: assign each of the following binders its reported kon.
- SYSTEM: T1, recombinant Fc-TrkB antigen (human) (human, UniProt Q16620 32-430, limits assumed)
- T1 construct: Biotinylated for the ForteBio assays; also called Fc-hTrkB; human Fc-TrkB; not shown: Fc part
- ASSAY OVERVIEW: BLI (ForteBio Octet), biotinylated Fc-TrkB on streptavidin sensors, Fab at 1E-7 M
Don't forget the unit after the value.

Please look at the items below and tell me kon for each one, in order.
1. Fab TR139-2 (Fab, V domains shown, Fab with human V-segments, expressed in E. coli) VH: QVQLVQSGAEVKKPGASVKVSCKASGYTFTAYDMHWVRQAPGQGLEWMGWIDPNSGGTRYAQKFQGRVTMTRDTSISTAYMELSRLTSDDTAVYYCTGVTTWFAYWGQGTLVTVSS VL: MDVVMTQSPLSLPVTLGQPASISCRSSQSLVHSNGNTYLSWLQQRPGQPPRLLIYKISNRFSGVPDRFSGSGAGTDFTLKISRVEAEDVGVYYCMQGTHEPYTFGQGKLEIK
2. Fab TR144-1 (Fab, V domains shown, Fab with human V-segments, expressed in E. coli) VH: QVQLVQSGAEVKKPGASVKVSCKASGYTFTAYDMHWVRQAPGQGLEWMGWIDPRSGDTSYKQKFQGRVTMTRDTSISTAYMELHRLRSDDTAVYYCTGVTTWFAYWGQGTLVTVSS VL: MDVVMTQSPLSLPVTLGQPASISCRSSQSLVHSNGNTYLNWYQQKPGQPPRLLIYKISNRFSGVPDRFSGSGAGTDFTLKISRVEAEDVGVYYCMQGTHEPYTFGQGKLEIK
3. Fab TR135-8 (Fab, V domains shown, Fab with human V-segments, expressed in E. coli; detected with anti-human kappa) VH: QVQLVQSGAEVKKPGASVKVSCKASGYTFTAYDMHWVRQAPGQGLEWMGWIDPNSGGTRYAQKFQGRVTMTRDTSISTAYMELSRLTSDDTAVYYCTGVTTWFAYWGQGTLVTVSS VL: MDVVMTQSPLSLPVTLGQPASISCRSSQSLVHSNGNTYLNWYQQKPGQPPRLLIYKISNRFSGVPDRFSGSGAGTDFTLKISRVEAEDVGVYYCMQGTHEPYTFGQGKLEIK
4. Fab TR134-4 (Fab, V domains shown, Fab with human V-segments, expressed in E. coli) VH: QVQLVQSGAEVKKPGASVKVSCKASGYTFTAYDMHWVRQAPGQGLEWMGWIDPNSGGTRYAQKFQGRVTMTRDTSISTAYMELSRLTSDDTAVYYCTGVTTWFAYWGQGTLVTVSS VL: MDVVMTQSPLSLPVTLGQPASISCRSSQSLLHSNGNTYLNWYQQTPGQPPRLLIYKISNRFSGVPDRFSGSGAGTDFTLKISRVEAEDVGVYYCMQGTHEPYTFGQGKLEIK

["235000 M⁻¹ s⁻¹", "123000 M⁻¹ s⁻¹", "144000 M⁻¹ s⁻¹", "118000 M⁻¹ s⁻¹"]
